Test system: NCI-H661
Experiment: relative viability (nuclei count vs DMSO), 5 days (fraction); higher = more cells survive
Details: first compound 0.01581 µM
One threshold, 0.7, splits the recorded relative viability values: lower ones are Fulfilled, equal or higher ones are Not fulfilled.

Nc1ccn([C@@H]2O[C@H](CO)[C@@H](O)[C@@H]2O)c(=O)n1 [Cytarabine] + CC(=O)Nc1cccc(-n2c(=O)n(C3CC3)c(=O)c3c(Nc4ccc(I)cc4F)n(C)c(=O)c(C)c32)c1 [Trametinib] (partner 0.02 µM): Fulfilled
Nc1ccn([C@@H]2O[C@H](CO)[C@@H](O)[C@@H]2O)c(=O)n1 [Cytarabine] + N=C(N)NC(=N)NCCc1ccccc1 [Phenformin] (partner 250 µM): Fulfilled
COc1cc2nccc(Oc3ccc(NC(=O)Nc4cc(C)on4)c(Cl)c3)c2cc1OC [Tivozanib] + Cc1nc(Nc2ncc(C(=O)Nc3c(C)cccc3Cl)s2)cc(N2CCN(CCO)CC2)n1 [Dasatinib] (partner 0.075 µM): Not fulfilled

Note: attention shifts to another entry.
Check if relative viability falls below 0.7 for COc1cc2nccc(Oc3ccc(NC(=O)Nc4cc(C)on4)c(Cl)c3)c2cc1OC [Tivozanib] + CCNC(=O)c1noc(-c2cc(C(C)C)c(O)cc2O)c1-c1ccc(CN2CCOCC2)cc1 [Luminespib] (partner 0.01 µM) .
Not fulfilled

Data origin, for the record: the supplement of paper PMC10307832
